The following molecules are shown together with reported pKd values.
# target-entity: human serum albumin (HSA) (Homo sapiens)
# Construct: three analogous domains (I, II, and III) having amino acid residues of 1–195, 196–383, and 384–585
# assay-remarks: Steady-state fluorescence quenching of HSA
# Type: binding
# condition-label: Ka (modified Stern–Volmer binding constant), 303 K
To interpret pKd, take it as minus log10 of a concentration measured in moles per litre.

molecule	target-entity	pKd
Cc1ccc(Nc2n[n+](-c3ccccc3)c(/C=C/c3ccccc3)s2)cc1.[Cl-] [5a]	human serum albumin (HSA) (Homo sapiens)	4.88

Recorded pKd for COc1ccc(Nc2n[n+](-c3ccccc3)c(/C=C/c3ccccc3)s2)cc1.[Cl-] [5b] , please?
4.93

Entry to check: Brc1ccc(Nc2n[n+](-c3ccccc3)c(/C=C/c3ccccc3)s2)cc1.[Cl-] [5d]
4.96

Entry to check: Clc1ccc(Nc2n[n+](-c3ccccc3)c(/C=C/c3ccccc3)s2)cc1.[Cl-] [5c]
4.96

----------
The following compounds are shown together with reported ΔG° values.
# target-entity: human serum albumin (HSA) (Homo sapiens, UniProt P02768)
# Construct: three analogous domains (I, II, and III) having amino acid residues of 1–195, 196–383, and 384–585
# Sequence (P02768 25-609): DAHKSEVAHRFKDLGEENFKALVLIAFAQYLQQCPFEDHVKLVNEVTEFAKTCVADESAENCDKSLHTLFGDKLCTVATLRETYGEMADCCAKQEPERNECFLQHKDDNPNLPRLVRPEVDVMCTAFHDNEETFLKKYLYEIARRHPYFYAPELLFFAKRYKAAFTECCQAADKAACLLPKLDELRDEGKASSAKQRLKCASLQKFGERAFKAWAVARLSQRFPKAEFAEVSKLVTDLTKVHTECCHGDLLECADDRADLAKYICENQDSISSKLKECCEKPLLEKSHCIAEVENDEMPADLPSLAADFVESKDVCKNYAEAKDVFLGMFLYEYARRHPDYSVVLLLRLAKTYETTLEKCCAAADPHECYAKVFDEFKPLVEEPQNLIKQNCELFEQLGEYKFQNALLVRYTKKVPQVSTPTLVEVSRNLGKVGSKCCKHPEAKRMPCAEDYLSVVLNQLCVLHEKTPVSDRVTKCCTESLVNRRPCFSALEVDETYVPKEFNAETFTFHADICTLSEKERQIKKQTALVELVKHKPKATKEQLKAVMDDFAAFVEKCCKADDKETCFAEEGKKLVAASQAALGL
# assay-remarks: Steady-state fluorescence quenching of HSA
# Assay type: binding
# condition-label: 296 K
// return numeric value only (unit: kcal/mol, not printed)

Recorded ΔG° for Cc1ccc(Nc2n[n+](-c3ccccc3)c(/C=C/c3ccccc3)s2)cc1.[Cl-] [5a] , please?
-6.62

Entry to check: COc1ccc(Nc2n[n+](-c3ccccc3)c(/C=C/c3ccccc3)s2)cc1.[Cl-] [5b]
-6.69

Entry to check: Clc1ccc(Nc2n[n+](-c3ccccc3)c(/C=C/c3ccccc3)s2)cc1.[Cl-] [5c]
-6.72

Entry to check: Brc1ccc(Nc2n[n+](-c3ccccc3)c(/C=C/c3ccccc3)s2)cc1.[Cl-] [5d]
-6.67

----------
# target-entity: human serum albumin (HSA) (Homo sapiens, UniProt P02768)
# Construct: three analogous domains (I, II, and III) having amino acid residues of 1–195, 196–383, and 384–585
# assay-remarks: Circular dichroism of HSA (secondary structure)
# Format: binding
# condition-label: CD, 310 K, 1.32 × 10^−5 M compound; HSA alone 86.7%
The following molecules are shown together with reported α-helix % of HSA at 208 nm values.
// return numeric value only (unit: %, not printed)

Some solved cases for reference:
molecule	target-entity	units-symbol	α-helix % of HSA at 208 nm
Brc1ccc(Nc2n[n+](-c3ccccc3)c(/C=C/c3ccccc3)s2)cc1.[Cl-] [5d]	human serum albumin (HSA) (Homo sapiens, UniProt P02768)	%	82.0
Clc1ccc(Nc2n[n+](-c3ccccc3)c(/C=C/c3ccccc3)s2)cc1.[Cl-] [5c]	human serum albumin (HSA) (Homo sapiens, UniProt P02768)	%	83.8
Cc1ccc(Nc2n[n+](-c3ccccc3)c(/C=C/c3ccccc3)s2)cc1.[Cl-] [5a]	human serum albumin (HSA) (Homo sapiens, UniProt P02768)	%	84.0

# evaluate next
Give α-helix % of HSA at 208 nm (human serum albumin (HSA) (Homo sapiens, UniProt P02768)) of the following molecule: COc1ccc(Nc2n[n+](-c3ccccc3)c(/C=C/c3ccccc3)s2)cc1.[Cl-] [5b]
82.4

Data provenance: paper PMC7321218
